// cross-source set; read-out = IC50; system = UniProt:P35367
Sequence (P35367 whole entry): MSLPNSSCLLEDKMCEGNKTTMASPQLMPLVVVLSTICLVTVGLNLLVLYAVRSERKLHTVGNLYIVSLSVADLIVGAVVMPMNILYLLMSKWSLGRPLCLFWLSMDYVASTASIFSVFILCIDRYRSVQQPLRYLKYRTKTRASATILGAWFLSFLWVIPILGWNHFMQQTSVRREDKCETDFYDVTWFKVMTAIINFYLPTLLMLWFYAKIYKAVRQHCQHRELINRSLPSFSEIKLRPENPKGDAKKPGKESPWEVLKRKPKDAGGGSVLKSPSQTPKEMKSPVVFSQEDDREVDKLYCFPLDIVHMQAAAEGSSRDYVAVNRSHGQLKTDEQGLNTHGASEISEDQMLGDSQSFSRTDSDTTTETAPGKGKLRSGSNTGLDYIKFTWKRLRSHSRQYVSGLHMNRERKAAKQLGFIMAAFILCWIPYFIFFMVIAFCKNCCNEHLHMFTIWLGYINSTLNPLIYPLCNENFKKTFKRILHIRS
Metric: IC50

>>> reported_value("CN(C)CC1CC2c3ccccc3Cc3ccncc3N2O1 (stereo not given)")
"> 1 µM"
>>> reported_value("O=[N+]([O-])c1cc(O)c2c(c1)S(=O)(=O)N=C(Nc1ccccc1Oc1ccccc1)N2")
"> 10 µM"
>>> reported_value("Cc1nc2cccc(C(F)(F)F)c2c(=O)n1-c1ccc(OCCCN2CCCC2)cc1")
"> 10 µM"
>>> reported_value("Cc1cnc(N[C@H]2CC[C@@H](CNC(=O)c3cc(C(F)(F)F)cc(C(F)(F)F)c3)CC2)nc1N(C)C")
"> 10 µM"
>>> reported_value("Cc1nc2cccc(F)c2c(=O)n1-c1ccc(OC2CCN(C3CCC3)CC2)cc1")
"> 10 µM"
